# System: primary rat microglia
# Test summary: Cell toxicity (dead cells, size <150 μm2) in coated fibrin (cFib) assay;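 note: share of dead cells sized under 150 µm2 at 10 µM in fibrin-stimulated microglia HTS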
# Protocol conditions: primary microglia HTS, fibrin stimulation; decreased size (<150 μm^2) as marker of toxicity

{"Compound": "CCN(CC)CCNC(=O)c1cc(Cl)c(N)cc1OC [Metoclopramide]", "Fibrin % cell toxicity [%]": 1}
{"Compound": "OCc1ccccc1O[C@@H]1O[C@H](CO)[C@@H](O)[C@H](O)[C@H]1O [Salicin, reference compound]", "Fibrin % cell toxicity [%]": 1}
{"Compound": "CC(=O)OC(C)C[N+](C)(C)C (stereo not drawn) [Methacholine]", "Fibrin % cell toxicity [%]": 1}
{"Compound": "CCOC(=O)C1=C[C@@H](OC(CC)CC)[C@H](NC(C)=O)[C@@H](N)C1 [Oseltamivir Phosphate]", "Fibrin % cell toxicity [%]": 1}
{"Compound": "Cc1cc2c(cc1S(N)(=O)=O)S(=O)(=O)CCC2 [Meticrane]", "Fibrin % cell toxicity [%]": 0}
{"Compound": "CCCCN1C[C@H](O)[C@@H](O)[C@H](O)[C@H]1CO [Miglustat]", "Fibrin % cell toxicity [%]": 1}
{"Compound": "c1ccc2c(CC3=NCCN3)cccc2c1 [Naphazoline]", "Fibrin % cell toxicity [%]": 1}
{"Compound": "CC1(C)O[C@@H]2C[C@H]3[C@@H]4CCC5=CC(=O)CC[C@]5(C)[C@@]4(F)[C@@H](O)C[C@]3(C)[C@]2(C(=O)CCl)O1 [Halcinonide]", "Fibrin % cell toxicity [%]": 8}
{"Compound": "COc1cc(/C=C/C(=O)N2CCCCCCC2)cc(OC)c1OC [Cinoctramide]", "Fibrin % cell toxicity [%]": 4}

Reference for the values: patent US20210330611A1
